Target: human NK3 (Homo sapiens, UniProt P29371)
Sequence (P29371 whole entry): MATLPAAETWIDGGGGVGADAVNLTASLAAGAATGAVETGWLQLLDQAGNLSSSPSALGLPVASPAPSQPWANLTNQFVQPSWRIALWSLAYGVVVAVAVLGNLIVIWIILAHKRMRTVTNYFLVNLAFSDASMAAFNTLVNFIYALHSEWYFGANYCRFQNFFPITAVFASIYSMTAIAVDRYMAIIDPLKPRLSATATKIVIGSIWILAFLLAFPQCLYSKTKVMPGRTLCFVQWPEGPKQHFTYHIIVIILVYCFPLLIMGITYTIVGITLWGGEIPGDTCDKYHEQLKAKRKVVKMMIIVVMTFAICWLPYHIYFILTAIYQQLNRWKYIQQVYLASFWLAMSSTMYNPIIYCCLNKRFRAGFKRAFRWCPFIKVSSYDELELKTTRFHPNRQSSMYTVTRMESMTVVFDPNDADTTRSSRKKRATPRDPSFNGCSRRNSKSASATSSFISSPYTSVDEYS
Experiment: FLIPR calcium assay in antagonist mode (NKB EC70 challenge)
Conditions: stable cell line expressing human recombinant NK3; antagonist mode vs EC70 of NKB agonist
Description: Stable Cell Lines: A human recombinant NK3 Tachykinin Receptor stable cell line was purchased from GenScript (Genscript, Cat. #M00201; GenBank Accession Number NM 001059). […] This bank of assay-ready frozen cells was later used in FLIPR assays to evaluate the potency and efficacy of NK3 antagonist test compounds. […] Calculation of NKB EC70: An EC70 concentration of NKB needed to be determined for competition against test antagonists prior to the compound screen. […]
IC50 overview
measured_property: IC50

1. Cc1nn(C)cc1-c1ccccc1-c1nc2cc(C(=O)N[C@@H]3CO[C@H]4[C@@H]3OC[C@@H]4O)ccn2c1Cl: 2.26 nM
2. Cc1nn(C)cc1-c1ccccc1-c1nc2cc(C(=O)NC[C@]34C[C@](O)(C3)C4)ccn2c1Cl: 1.53 nM
3. Cc1nn(C)cc1-c1ccccc1-c1nc2cc(C(=O)N[C@H]3C[C@H](CO)C3)ccn2c1Cl: 1.04 nM
4. N#CC12CC(NC(=O)c3ccn4c(Cl)c(-c5c(F)cc(F)cc5-c5c[nH]nc5F)nc4c3)(C1)C2: 1.99 nM
5. Cn1cc(-c2ccc(F)c(F)c2-c2nc3cc(C(=O)N4CCOCC4)ccn3c2Cl)c(F)n1: 5.66 nM
6. Cn1cc(-c2cccc(F)c2-c2nc3cc(C(=O)NC45COC(CO)(C4)C5)ccn3c2Cl)c(F)n1: 5.17 nM
7. Cn1cc(-c2cccc(F)c2-c2nc3cc(C(=O)N[C@H]4CC[C@](C)(O)CC4)ccn3c2Cl)c(F)n1: 0.67 nM
8. Cn1cc(-c2cccc(F)c2-c2nc3cc(C(=O)N[C@]45CC[C@](CO)(C4)OC5)ccn3c2Cl)cn1: 9.69 nM
9. Cc1nn(C)cc1-c1ccccc1-c1nc2cc(C(=O)NC[C@@H](C)N3CCNC3=O)ccn2c1Cl: 3.4 nM
10. Cc1nn(C)cc1-c1ccccc1-c1nc2cc(C(=O)NC34COC(CO)(C3)C4)ccn2c1Cl: 2.5 nM
11. Cc1nn(C)cc1-c1ccccc1-c1nc2cc(C(=O)N[C@@H]3CO[C@H]4[C@@H]3OC[C@H]4O)ccn2c1C: 3.16 nM
12. Cn1cc(-c2cccc(F)c2-c2nc3cc(C(=O)N[C@]45CC[C@](CO)(C4)OC5)ccn3c2Cl)c(F)n1 (single isomer, unassigned; second eluting): 1.06 nM
13. Cn1cc(-c2cccc(F)c2-c2nc3cc(C(=O)N[C@H]4C[C@](C)(O)C4)ccn3c2C#N)c(F)n1: 1.85 nM
